# Test system: L1210 leukemia ip in BDF1 mice, survival T/C
# experiment_description: NCI In Vivo Anticancer Drug Screen. Data for tumor model L1210 Leukemia (intraperitoneal) in B6D2F1 (BDF1) mice
# experimental_parameters: endpoint: mean survival time; dose: 100.0 mg/kg/injection; schedule: Q01DX009 (ip); vehicle: saline with Tween-80; higher = longer survival
Inconclusive results and toxic doses are left out.
Documented T/C across a set of molecules

# molecule, subject_of_test, T/C
measured = [
    ("CN(C)N=Nc1ccccc1C(N)=O", "L1210 leukemia ip in BDF1 mice, survival T/C", "109 % of control"),
    ("O=C1Nc2ccc(Br)cc2C1(O)Cc1cccc([N+](=O)[O-])c1 (configuration not stated)", "L1210 leukemia ip in BDF1 mice, survival T/C", "93 % of control"),
    ("Cc1ccc2c(c1)nc1c3ccccc3nc(-c3ccccc3N)n21", "L1210 leukemia ip in BDF1 mice, survival T/C", "89 % of control"),
    ("Oc1ccc(C(O)(c2ccccc2)c2ccc(O)c3ccccc23)c2ccccc12", "L1210 leukemia ip in BDF1 mice, survival T/C", "96 % of control"),
    ("C[C@]12CCCC[C@@H]1CC[C@@H]1[C@@H]2[C@@H](O)C[C@]2(C)[C@@H](O)CC[C@@H]12", "L1210 leukemia ip in BDF1 mice, survival T/C", "90 % of control"),
    ("O=[N+]([O-])c1ccc2c(c1[N+](=O)[O-])CCCC2", "L1210 leukemia ip in BDF1 mice, survival T/C", "93 % of control"),
    ("O=c1oc(-c2ccc3c(c2)OCO3)nc2ccccc12", "L1210 leukemia ip in BDF1 mice, survival T/C", "94 % of control"),
    ("NCC(=O)Nc1ccc(Cl)cc1C(=O)c1ccc[nH]1", "L1210 leukemia ip in BDF1 mice, survival T/C", "93 % of control"),
    ("CCOC(=O)CN(CC(=O)OCC)CC(O)C(Cl)(Cl)Cl (configuration not stated)", "L1210 leukemia ip in BDF1 mice, survival T/C", "106 % of control"),
    ("C=CCNc1ccc(OC)cc1", "L1210 leukemia ip in BDF1 mice, survival T/C", "96 % of control"),
    ("C=CCOC(=N)c1ccccc1", "L1210 leukemia ip in BDF1 mice, survival T/C", "105 % of control"),
    ("CCCNC1(C(N)=O)CCN(Cc2ccccc2)CC1", "L1210 leukemia ip in BDF1 mice, survival T/C", "91 % of control"),
]

Reference source: PubChem BioAssay AID248
